For each of the compounds below, state its relative viability.
Tested on: SW684
Assay: relative viability vs DMSO control (72 h) (fraction); higher = more viable cells
Settings: 0.01372 µM
Please reply with the value in numeric form only.

Entry N#CC[C@H](C1CCCC1)n1cc(-c2ncnc3[nH]ccc23)cn1 , tested on SW684, has a reported relative viability of 0.991

Entry COc1c(OCCCN2CCOCC2)ccc2c1N=C(NC(=O)c1cnc(N)nc1)N1CCN=C21 , tested on SW684, has a reported relative viability of 0.631

Entry C=CC(=O)Nc1cccc(Oc2nc(Nc3ccc(N4CCN(C)CC4)cc3)nc3ccsc23)c1 , tested on SW684, has a reported relative viability of 1.05
